# Test system: GBM culture 103
# METHOD NOTES: XTT cell proliferation assay
# Type: cell-based, Mouse
# CONDITIONS USED: Mus musculus, 36 h
pIC50: −log10 of the molar value.

COMPOUND STRUCTURE STRING	pIC50
O=C1OCC/C=C/CC/C=C/C(=N/OCC(=O)N2CCCCC2)Cc2c(Cl)c(O)cc(O)c21	6.24

----------
# Type: in vivo, CD-1 mice
# CONDITIONS USED: male, CD-1, mouse, plasma, iv, 25 mg/kg

MOLECULE	half-life [h]
O=C1OCC/C=C/CC/C=C/C(=N/OCC(=O)N2CCCCC2)Cc2c(Cl)c(O)cc(O)c21 [NXD30001]	5.4

----------
# System: GBM culture 102
# METHOD NOTES: XTT cell proliferation assay
# Assay type: cell-based, Mouse
# CONDITIONS USED: Mus musculus, 36 h

COMPOUND STRUCTURE STRING	IC50
O=C1OCC/C=C/CC/C=C/C(=N/OCC(=O)N2CCCCC2)Cc2c(Cl)c(O)cc(O)c21	360 nM

----------
# METHOD NOTES: Brain concentrations of HSP90 inhibitors after a single i.p. injection
# CONDITIONS USED: NCR-Nude, mouse, intraperitoneal, 150 mg/kg
ASSAY ENDPOINT: concentration at 24 h (ng/g)

MOLECULE	TEST RESULT
O=C1OCC/C=C/CC/C=C/C(=N/OCC(=O)N2CCCCC2)Cc2c(Cl)c(O)cc(O)c21 [NXD30001]	900

----------
# Test system: GBM culture 2415
# METHOD NOTES: XTT cell proliferation assay
# Format: cell-based, Mouse
# CONDITIONS USED: Mus musculus, 36 h

COMPOUND STRUCTURE STRING	IC50 (nM)
O=C1OCC/C=C/CC/C=C/C(=N/OCC(=O)N2CCCCC2)Cc2c(Cl)c(O)cc(O)c21	251

----------
# METHOD NOTES: Brain concentrations of HSP90 inhibitors after a single i.p. injection
# CONDITIONS USED: NCR-Nude, mouse, intraperitoneal, 100 mg/kg
ASSAY ENDPOINT: concentration at 48 h (ng/g)

COMPOUND STRUCTURE STRING	UNITS LABEL	TEST RESULT
O=C1OCC/C=C/CC/C=C/C(=N/OCC(=O)N2CCCCC2)Cc2c(Cl)c(O)cc(O)c21	ng/g	10.7

----------
# METHOD NOTES: Brain concentrations of HSP90 inhibitors after a single i.p. injection
# CONDITIONS USED: NCR-Nude, mouse, intraperitoneal, 100 mg/kg

COMPOUND STRUCTURE STRING	concentration at 24 h
O=C1OCC/C=C/CC/C=C/C(=N/OCC(=O)N2CCCCC2)Cc2c(Cl)c(O)cc(O)c21	271 ng/g

----------
# Type: in vivo, CD-1 mice
# CONDITIONS USED: male, CD-1, mouse, plasma, iv, 70 mg/kg

COMPOUND STRUCTURE STRING	C0 / ng/mL
O=C1OCC/C=C/CC/C=C/C(=N/OCC(=O)N2CCCCC2)Cc2c(Cl)c(O)cc(O)c21	2140

----------
# Assay type: in vivo, CD-1 mice
# CONDITIONS USED: male, CD-1, mouse, brain and plasma, iv, 25 mg/kg

COMPOUND STRUCTURE STRING	Kp
O=C1OCC/C=C/CC/C=C/C(=N/OCC(=O)N2CCCCC2)Cc2c(Cl)c(O)cc(O)c21	0.135
